Taken from the RNAGym collection of RNA variant scans (doi:10.1073/pnas.2313332121).

B1: TPR 5TU (parent)
chain: GGAUCUUCUCGAUCUAACAAAAAAGACAAAUCUGCCACAAAGCUUGAGAGCAUCUUCGGAUGCAGAGGCGGCAGCCUUCGGUGGCGCGAUAGCGCCAACGUUCUCAACUAUGACACGCAAAACGCGUGCUCCGUUGAAUGGAGUUUAUCAUG

# Variants of: B1
# procedure text: polymerase ribozyme fitness, log enrichment relative to wild type (log ratio); higher = more active; in vitro selection for triplet polymerase activity
Variants at the floor of the assay were thinned out.
Could you label it y if measured polymerase ribozyme fitness (log ratio) is -3 or higher, and n otherwise?

variant code	class label
G84U C118U	y
A17U C32G G48A C79G G84U G86U C108U	n
G80A C93G C96U	n
A21C A40C G94A G128U	n
A12C U90G	n
C54U A89C C131U	y
U6A A20C U31C C96A U127C	y
A28U U55G C85G G88A A89U C103U G143C	n
A29C A49C U61A A138C	n
A22U C99U U101G A115U U151G	n
U55A U56A U78C G83U A89U	y
A73U C85U	y
A22C C32U C85G C95A G100A G112C	n
C38U C57G C75U G86A U148A	n
U53A U61A C85U A97U C108U	n
A29U U31A U56G A66G C96U C105A A138U	n
G42U C57A	n
C36U A40G C108G G140A	n
C5A A20U C35U A91C U101A C105G U145G	n
C54G G140U	n
A40G C54G G126A	n
